Test: Probe fluorescence ratio response to arachidonic acid relative to ADIFAB2
Type: binding
Settings: arachidonic acid; response relative to ADIFAB2
Measurement kind: DR/DR AA
No unit in the answer, please; the number alone is enough.

Some solved entries appear below for comparison.
[
  {
    "Molecule": "36I, 72A (protein, listed as Rattus norvegicus, PEPTIDE (1)...(131) wild-type rat intestinal fatty acid binding protein) AFDGTWKVDRNENYEKFMEKMGINVVKRKLGAHDNIKLTITQEGNKFTVKESSNFRNIDVVFELGVDFAYSAADGTELTGTWTMEGNKLVGKFKRVDNGKELIAVREISGNELIQTYTYEGVEAKRIFKKE",
    "Measurement kind": "DR/DR AA",
    "Result value": 0.812
  },
  {
    "Molecule": "31E3, 72A (protein, listed as Rattus norvegicus, PEPTIDE (1)...(131) wild-type rat intestinal fatty acid binding protein) AFDGTWKVDRNENYEKFMEKMGINVVKRKLEAHDNLKLTITQEGNKFTVKESSNFRNIDVVFELGVDFAYSAADGTELTGTWTMEGNKLVGKFKRVDNGKELIAVREISGNELIQTYTYEGVEAKRIFKKE",
    "Measurement kind": "DR/DR AA",
    "Result value": 0.55
  },
  {
    "Molecule": "49M, 72A (protein, listed as Rattus norvegicus, PEPTIDE (1)...(131) wild-type rat intestinal fatty acid binding protein) AFDGTWKVDRNENYEKFMEKMGINVVKRKLGAHDNLKLTITQEGNKFTMKESSNFRNIDVVFELGVDFAYSAADGTELTGTWTMEGNKLVGKFKRVDNGKELIAVREISGNELIQTYTYEGVEAKRIFKKE",
    "Measurement kind": "DR/DR AA",
    "Result value": 1.363
  }
]

Which DR/DR AA value is on record for 106N1, 72A (protein, listed as Rattus norvegicus, PEPTIDE (1)...(131) wild-type rat intestinal fatty acid binding protein) AFDGTWKVDRNENYEKFMEKMGINVVKRKLGAHDNLKLTITQEGNKFTVKESSNFRNIDVVFELGVDFAYSAADGTELTGTWTMEGNKLVGKFKRVDNGKELIAVNEISGNELIQTYTYEGVEAKRIFKKE ?
0.38

Any idea what its DR/DR AA is? The molecule is 115S1, 72A (protein, listed as Rattus norvegicus, PEPTIDE (1)...(131) wild-type rat intestinal fatty acid binding protein) AFDGTWKVDRNENYEKFMEKMGINVVKRKLGAHDNLKLTITQEGNKFTVKESSNFRNIDVVFELGVDFAYSAADGTELTGTWTMEGNKLVGKFKRVDNGKELIAVREISGNELISTYTYEGVEAKRIFKKE
1.55

Can you look up the measured DR/DR AA of 72I 73W 74N (protein, listed as Rattus norvegicus, PEPTIDE (1)...(131) wild-type rat intestinal fatty acid binding protein) AFDGTWKVDRNENYEKFMEKMGINVVKRKLGAHDNLKLTITQEGNKFTVKESSNFRNIDVVFELGVDFAYSIWNGTELTGTWTMEGNKLVGKFKRVDNGKELIAVREISGNELIQTYTYEGVEAKRIFKKE for me?
0.791
